TEST SYSTEM: CYP3A4 (Homo sapiens)
Sequence (P08684 whole entry): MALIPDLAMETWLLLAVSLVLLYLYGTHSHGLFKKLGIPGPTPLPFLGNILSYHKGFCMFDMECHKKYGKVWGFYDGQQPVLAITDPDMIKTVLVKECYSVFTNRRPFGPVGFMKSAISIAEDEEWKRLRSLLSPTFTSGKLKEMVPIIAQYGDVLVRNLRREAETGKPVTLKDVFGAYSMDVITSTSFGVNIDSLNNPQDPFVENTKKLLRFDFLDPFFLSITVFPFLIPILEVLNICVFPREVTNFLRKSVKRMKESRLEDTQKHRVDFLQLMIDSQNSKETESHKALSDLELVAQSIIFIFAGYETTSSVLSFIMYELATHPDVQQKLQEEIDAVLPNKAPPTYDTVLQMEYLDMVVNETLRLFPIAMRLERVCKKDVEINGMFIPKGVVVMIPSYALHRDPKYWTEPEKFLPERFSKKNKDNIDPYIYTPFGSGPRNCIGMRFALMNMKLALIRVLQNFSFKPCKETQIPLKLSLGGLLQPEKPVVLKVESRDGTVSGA
TEST PROTOCOL: Inhibition of recombinant human CYP3A4 expressed in insect cell microsomes at 5 uM using Luciferin-IPA as substrate preincubated for 10 mins followed by NADPH addition measured after 10 mins by luminometric method
Format: ADME
CONDITIONS USED: probe Luciferin-IPA
OBSERVATION TYPE: inhibition at 10 min, 5 µM (%)
Just the number in %, nothing appended.

Previously resolved entries follow.
COc1cc(C(=O)NC(=N)Nc2ccc(C)c(NC(=O)c3ccc(CCc4ccccc4)cc3)c2)cc(OC)c1OC.Cl
89
COc1cc(C(=O)NC(=S)Nc2ccc(C)c(NC(=O)c3ccc(-c4ccc(F)cc4)cc3)c2)cc(OC)c1OC
7
COc1cc(C(=O)NC(=N)Nc2ccc(C)c(NC(=O)c3ccc(-c4ccc(F)cc4)cc3)c2)cc(OC)c1OC.Cl
78

Kindly review the next compound as well.
Quick one: inhibition at 10 min, 5 µM for "COc1cc(C(=O)NC(=N)Nc2ccc(C)c(NC(=O)c3ccc(-c4ccccc4)cc3)c2)cc(OC)c1OC.Cl" ?
76
